Values compiled from patent US10385022B2.

# measured on: human GPBAR1 receptor (Homo sapiens (Human), UniProt Q8TDU6)
# Sequence (Q8TDU6 whole entry): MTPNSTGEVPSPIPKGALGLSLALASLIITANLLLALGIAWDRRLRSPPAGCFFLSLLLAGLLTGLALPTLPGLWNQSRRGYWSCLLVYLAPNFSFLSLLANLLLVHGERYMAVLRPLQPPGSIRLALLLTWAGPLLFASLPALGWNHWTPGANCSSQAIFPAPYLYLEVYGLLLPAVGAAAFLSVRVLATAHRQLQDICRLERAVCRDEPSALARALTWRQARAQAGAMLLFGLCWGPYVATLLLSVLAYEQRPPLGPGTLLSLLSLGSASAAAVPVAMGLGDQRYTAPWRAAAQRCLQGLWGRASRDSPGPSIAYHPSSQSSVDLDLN
# method description: functional cAMP assay in CHO-dhfr(minus) cells expressing human GPBAR1 receptors
# condition details: CHO-dhfr(minus) cells expressing human GPBAR1, 30 min at 30° C.
pEC50: −log10 of the molar value.
observable: pEC50

1) COc1cc(F)ccc1-c1ccncc1N(CC(N)=O)C(=O)c1cc(C(F)(F)F)nc(C(F)(F)F)c1; 7.44
2) COCCS(=O)(=O)c1cc(C(=O)N(C)c2cnccc2-c2ccc(F)cc2OC)cc(C(F)(F)F)c1; 7.51
3) Cc1ccccc1-c1ccncc1N(C)C(=O)c1ccc(F)c(C(F)(F)F)c1; 6.95
4) COc1cc(F)ccc1-c1ccncc1N(C)C(=O)c1cc(Cl)cc(OC(F)(F)F)c1; 7.03
5) CS(=O)(=O)c1cc(C(=O)N(CC(F)(F)F)c2cnccc2-c2ccccc2F)cc(C(F)(F)F)c1; 6.58
6) CN(C(=O)c1cc(C(F)(F)F)cc(C(F)(F)F)c1)c1cnccc1-c1ccccc1F; 7.85
7) COc1cc(F)ccc1-c1ccncc1N(C)C(=O)c1cc(SCCO)cc(C(F)(F)F)c1; 7.42
8) O=C(c1cc(C(F)(F)F)cc(C(F)(F)F)c1)N(CCF)c1cnccc1-c1ccccc1Cl; 6.82
9) CC(C)N(C(=O)c1cc(C(F)(F)F)cc(C(F)(F)F)c1)c1cnccc1-c1ccccc1Cl; 6.21
10) Cc1cc(F)ccc1-c1ccncc1N(C)C(=O)c1cc(C(F)(F)F)cc(C(F)(F)F)c1; 7.42
11) CN(C(=O)c1cc(C(F)(F)F)cc(S(C)(=O)=O)c1)c1cnccc1-c1ccc(F)cc1OCc1ccccc1; 5.46
12) Cc1ccccc1-c1cc(C#N)ncc1N(C)C(=O)c1cc(C(F)(F)F)cc(C(F)(F)F)c1; 6.47
13) Cc1ccccc1-c1ccncc1N(C)C(=O)c1ccc(C(F)(F)F)c(C(F)(F)F)c1; 6.53
14) CN(C(=O)c1cc(C(F)(F)F)cc(C(F)(F)F)c1)c1cnccc1-c1cc(F)ccc1F; 7.14
15) COc1cc(F)ccc1-c1ccncc1N(C)C(=O)c1cc(C(F)(F)F)cc(S(=O)(=O)C2CN(S(C)(=O)=O)C2)c1; 7.16
16) Cc1cnccc1-c1ccncc1N(C)C(=O)c1cc(C(F)(F)F)cc(C(F)(F)F)c1; 6.30
17) COc1cc(F)ccc1-c1ccncc1N(Cc1nccn1C)C(=O)c1cc(C(F)(F)F)cc(S(C)(=O)=O)c1; 5.53
18) COc1cc(F)c(F)cc1-c1ccncc1N(C)C(=O)c1cc(C(F)(F)F)nc(C(F)(F)F)c1; 7.66
19) COc1cc(F)c(F)cc1-c1ccncc1N(CC(N)=O)C(=O)c1cc(C(F)(F)F)cc(C(F)(F)F)c1; 7.33
20) CS(=O)(=O)CCN(C(=O)c1cc(C(F)(F)F)nc(C(F)(F)F)c1)c1cnccc1-c1ccccc1F; 6.49
21) COc1ccc(F)cc1-c1ccncc1N(CC(N)=O)C(=O)c1cc(C(F)(F)F)cc(S(C)(=O)=O)c1; 6.56
22) COc1cc(F)c(F)cc1-c1ccncc1N(CC(N)=O)C(=O)c1cc(C(F)(F)F)cc(S(C)(=O)=O)c1; 6.34
23) COC(=O)CN(C(=O)c1cc(C(F)(F)F)nc(C(F)(F)F)c1)c1cnccc1-c1cccnc1OC; 7.57
24) COc1cc(F)ccc1-c1ccncc1N(C)C(=O)c1cc(CCC(N)=O)cc(C(F)(F)F)c1; 6.24
25) Cc1ccccc1-c1ccncc1N(C)C(=O)c1ccc(F)c(Cl)c1; 6.39
26) COC(=O)CN(C(=O)c1cc(C(F)(F)F)cc(S(C)(=O)=O)c1)c1cnccc1-c1ccccc1Cl; 6.56
27) CN(C(=O)c1cc(C(F)(F)F)cc(C(F)(F)F)c1)c1cnccc1-c1cccc(Cl)c1F; 6.59
28) COc1cc(F)c(F)cc1-c1ccncc1N(CC(F)(F)F)C(=O)c1cc(C(F)(F)F)cc(S(=O)(=O)N(C)C)c1; 6.91
29) COc1ncccc1-c1ccncc1N(C)C(=O)c1cc(C(F)(F)F)cc(C(F)(F)F)c1; 8.05
30) CS(=O)(=O)c1cc(C(=O)N(CC#N)c2cnccc2-c2ccccc2Cl)cc(C(F)(F)F)c1; 6.42
